Source: ChEMBL document CHEMBL1157539

Test system: HepG2
Assay: GSK_TCMDC: Percent inhibition of human HepG2 cell line. Test compounds present at 10uM.
Format: functional
MEASURED_PROPERTY: Inhibition (%)
The response must be a number in % with no trailing unit.

Can you look up the measured Inhibition of `Oc1ccc2ccccc2c1C=NNc1nc(=Nc2ccccc2)[nH]c(=Nc2ccccc2)[nH]1` for me?
55

Also Nc1nc(N)c2c(n1)CCC(c1ccccc1)C2 (stereo unspecified) , if possible.
55

Others:
Can you look up the measured Inhibition of `COc1ccc(CCc2ccc(-c3c(C)[nH]c(C)c(Cl)c3=O)cc2)cc1` for me?
0

Also `COc1ccc2nccc([C@@H](O)CN3CCC(NCc4nc5c(OCc6ccccc6)cccc5[nH]4)CC3)c2c1.O=C(O)C(=O)O` , if possible.
6

Also Cc1cccc(C(=O)NC(NC(=S)Nc2ccc([N+](=O)[O-])cc2)C(Cl)(Cl)Cl)c1 (stereo unspecified) , if possible.
14

Also `COc1cc2c(cc1OCCN1CCC(N)CC1)N(C(=O)/C=C/c1ccccc1Cl)CC2.Cl` , if possible.
19

Also CN(C)CC(O)C(O)(c1ccccc1)c1ccc(F)cc1.Cl (stereo unspecified) , if possible.
0

###

Test system: HepG2
Experiment: GSK_TCMDC: Percent inhibition of human HepG2 cell line. Test compounds present at 10uM.
Type: functional
Catalogue of molecules with associated Inhibition
The response must be a number in % with no trailing unit.

Below are worked cases with known answers.
Notebook: pull reported Inhibition for HepG2, entry `CCOc1cc(C(=O)Nc2ccccc2N2CCN(S(C)(=O)=O)CC2)cc(OCC)c1OCC`
0

Also `CCCNC(=O)C1CCN(C(c2ccc(Cl)cc2)c2ccc(Cl)cc2)CC1` , if possible.
7

Also `O=C(/C=C/c1ccc(Cl)c(Cl)c1)NCC1CCN(Cc2ccc(O)cc2)CC1.O=C(O)C(F)(F)F` , if possible.
4

--- query ---
Notebook: pull reported Inhibition for HepG2, entry `O=C(O)/C=C\C(=O)O.c1ccc(COc2ccnc(NCCCOc3cccc(CN4CCCCC4)c3)c2)cc1`
22

###

Test system: Plasmodium falciparum
Assay: GSK_TCMDC: Inhibition of Plasmodium falciparum Dd2 in whole red blood cells, using parasite LDH activity as an index of growth. Test compounds present at 2uM
Format: functional
MEASURED_PROPERTY: Inhibition (%)
The response must be a number in % with no trailing unit.

Can you look up the measured Inhibition of `COc1cc2nc(NCCc3ccccc3)nc(NCc3cnn(C)c3C)c2cc1OC` for me?
94

Also `O=C(O)C(F)(F)F.c1ccc(CN2CCC(NCc3ccccc3-c3cccc(CNC4CCCC4)c3)CC2)cc1` , if possible.
59

Also O=C(/C=C/c1cccc(Cl)c1)N1CCC(C(O)CN2CCC3(CC2)CN(C(=O)/C=C/c2cccc(Cl)c2)c2ccccc23)CC1 (centres undefined) , if possible.
38

--- query ---
Can you look up the measured Inhibition of Cc1nc(-c2cccc(Nc3nccc(NCC(O)c4ccccc4C(F)(F)F)n3)c2)cs1 (centres undefined) for me?
50

###

System: HepG2
Experiment: GSK_TCMDC: Percent inhibition of human HepG2 cell line. Test compounds present at 10uM.
Type: functional
With a cut-off of 20%, any Inhibition strictly below it is called Condition met; any Inhibition meeting it or above is called Condition not met.

Consider the following illustrative entries.
Record O=C(/C=C/c1ccc(Cl)c(Cl)c1)NCCCCCN1CCCC(CNC(=O)/C=C/c2ccccc2)C1 (stereo unspecified) : is its Inhibition strictly below 20%?
Condition not met

Also `CC(C)Cn1c(Sc2ccc(C#N)c([N+](=O)[O-])c2)nnc1-c1ccccc1Cl` , if possible.
Condition met

Also CS(=O)(=O)N1CC2(CCN(CCC(NC(=O)NCc3ccc(Cl)c(Cl)c3)c3ccc(Cl)c(Cl)c3)CC2)c2ccccc21 (stereo unspecified) , if possible.
Condition met

Also `O=C(/C=C/c1ccc(Cl)c(Cl)c1)NCCCCCN1CCC(NC(=O)Nc2ccc(Cl)c(C(F)(F)F)c2)CC1` , if possible.
Condition not met

Also `Br.N=C1N=C(N)NC2(CCCCC2)N1OCCOc1ccc(Cc2ccccc2)cc1` , if possible.
Condition not met

Also `CCC[C@@H]([C@@H](CC1CCCCC1)C(=O)N[C@@H](CCOC(=O)NCC)C(=O)Nc1nccs1)N(O)C=O` , if possible.
Condition met

Also `CC(=NNC(=N)N)c1ccc2c(ccc3ccccc32)c1.Cl` , if possible.
Condition not met

Also `C[C@H](Cc1ccc(OCCCCOc2ccc(C[C@@H](C)NC[C@H](O)c3cccc(Cl)c3)cc2)cc1)NC[C@H](O)c1cccc(Cl)c1` , if possible.
Condition not met

Also `Cc1noc(C)c1-c1cccc(CNCc2cccc(-c3cccc(-c4nc5cc(C(F)(F)F)ccc5[nH]4)c3)c2)c1.O=C(O)C(F)(F)F` , if possible.
Condition met

Also CCN1CCCC1CN(Cc1ccc(-c2ccc(C(F)(F)F)cc2)cc1)C(=O)Cn1c(CCc2cccc(F)c2F)nc(=O)c2ccccc21.O=C(O)C(O)C(O)C(=O)O (stereo unspecified) , if possible.
Condition not met

Others:
Record `O=C(/C=C/c1ccc(Cl)c(Cl)c1)NCCCCCCN1CCCN(C(=O)Nc2cc(F)cc(F)c2)CC1` : is its Inhibition strictly below 20%?
Condition not met

Also `CCOc1cc(C(=O)NCC2CCN(CC3CCCCC3)CC2)ccc1-c1nc2cc(Cl)ccc2[nH]1` , if possible.
Condition met

Also `Cc1cc2c(cc1C(F)(F)F)N(C(=O)Nc1cc(OCCN(C)C)cc(C(F)(F)F)c1)CC2.Cl` , if possible.
Condition met

###

Test system: Plasmodium falciparum
Assay: GSK_TCMDC: Inhibition of Plasmodium falciparum Dd2 in whole red blood cells, using parasite LDH activity as an index of growth. Test compounds present at 2uM
Assay type: functional
MEASURED_PROPERTY: Inhibition (%)
The response must be a number in % with no trailing unit.

Can you look up the measured Inhibition of `Cl.Oc1ccc(-c2ccccc2)cc1CNC1CCCCC1` for me?
100

Also `CC(C)C[C@H](NC(=O)c1ccc(OCCN2CCOCC2)cc1)C(=O)N[C@H](/C=N/N1CCNC1=O)CCc1ccccc1` , if possible.
94

Also `CCN(CC)CCCCNc1cc(-c2[nH]c(-c3c(Cl)cccc3Cl)nc2-c2ccc3cc(OC)ccc3c2)ccn1.O=C(O)C(F)(F)F` , if possible.
93

Also `Nc1ncc(-c2ccc(F)cc2)c2ccc(-c3cccc(F)c3)cc12` , if possible.
89

Also COc1ccc(CSC2CCCCC23NC(=S)NC3=S)cc1 (stereo not drawn) , if possible.
0

--- query ---
Can you look up the measured Inhibition of `CCOc1c(CCNCCCCNCCc2ccc3ccccc3c2OCC)ccc2ccccc12.CS(=O)(=O)O` for me?
87

###

System: Plasmodium falciparum
Assay: GSK_TCMDC: Inhibition of Plasmodium falciparum Dd2 in whole red blood cells, using parasite LDH activity as an index of growth. Test compounds present at 2uM
Type: functional
Catalogue of compounds with associated Inhibition
The response must be a number in % with no trailing unit.

Below are worked cases with known answers.
Can you look up the measured Inhibition of `Cl.O=c1cc(NCCCNCc2cc3ccc(Br)cc3s2)[nH]c2ccccc12` for me?
8

Also O=C(CC1SC(N2N=C(c3cccs3)CC2c2ccccc2)=NC1=O)Nc1ccccc1F (centres undefined) , if possible.
76

Also `COc1cc(-c2nc(-c3ccncc3)c(-c3ccc4c(c3)CCC4=NO)[nH]2)ccc1OCCN1CCCCC1.Cl` , if possible.
80

Others:
Can you look up the measured Inhibition of CC1CCc2sc(-c3nnc(SC(C)C(=O)NC4CC4)o3)cc2C1 (centres undefined) for me?
69

###

Catalogue of compounds with associated Inhibition
System: Plasmodium falciparum
Test: GSK_TCMDC: Inhibition of Plasmodium falciparum 3D7 in whole red blood cells, using parasite LDH activity as an index of growth. Test compounds present at 2uM
Assay type: functional
The response must be a number in % with no trailing unit.

Notebook: pull reported Inhibition for Plasmodium falciparum, entry `CCn1ncc2c(N3CCCC3=O)cc(C(=O)N[C@@H](Cc3ccccc3)[C@H](O)CNC(C)(C)c3cccc(C(F)(F)F)c3)cc21`
98

Others:
Notebook: pull reported Inhibition for Plasmodium falciparum, entry `CCC(=Cc1cccc([N+](=O)[O-])c1)C(=O)NCC1CCN(c2nc3cc(OC)c(OC)cc3c(=N)[nH]2)CC1.Cl`
100

Also `Br.N=c1n(CCN2CCCCC2)c2ccccc2n1CC(=O)c1cccc([N+](=O)[O-])c1` , if possible.
94

Also `Nc1nccc2ccc(-c3ccc(OCc4ccccc4)cc3)cc12.O=C(O)C(F)(F)F` , if possible.
100

Also `Cl.c1ccc(COc2ccc(Nc3ncnc4ccc(-c5ccc(CN6CCSCC6)o5)cc34)cc2)cc1` , if possible.
94
